organism: Rattus norvegicus; experiment: DrugMatrix - Regimen: Daily Repeat; assay type: toxicity, organism-based, Sprague-Dawley; parameters: regimen Daily Repeat, gender Male, age 6-8 weeks; settings: in vivo, iv, 0 mg/kg, 72 h, tissue Blood, dose level Control, time 3 day, vehicle 100 % SALINE
Starred links: 1 amine or outer side, 2 acyl side, 3 side chain; linkers in the order of their positions; H or OH if unused. Positions of bridges follow the written chain, without caps; N, C: chain ends. Non-standard residues stand in square brackets, D forms with d. Residues, ends and D or L forms follow the SMILES beside them. Chains are numbered I, II in the order given. Actinocin(9to1) = Cc1c2oc3c(C)ccc(C(=O)[*:1])c3nc-2c(C(=O)[*:2])c(N)c1=O; NMeV = CN[C@H](C(=O)O)C(C)C; Sar = CNCC(=O)O
measured_attribute: ABSOLUTE EOSINOPHIL (CELLS/uL)
Reply numerically in CELLS/uL, unit not repeated.

molecule | measured_attribute | units_symbol | assay_value
CC[C@]1(O)C[C@H]2CN(CCc3c([nH]c4ccccc34)[C@@](C(=O)OC)(c3cc4c(cc3OC)N(C=O)[C@H]3[C@@](O)(C(=O)OC)[C@H](OC(C)=O)[C@]5(CC)C=CCN6CC[C@]43[C@@H]65)C2)C1 | ABSOLUTE EOSINOPHIL | CELLS/uL | 0
Cc1c2oc3c(C)ccc(C(=O)N[C@@H]4C(=O)N[C@H](C(C)C)C(=O)N5CCC[C@H]5C(=O)N(C)CC(=O)N(C)[C@@H](C(C)C)C(=O)O[C@@H]4C)c3nc-2c(C(=O)N[C@@H]2C(=O)N[C@H](C(C)C)C(=O)N3CCC[C@H]3C(=O)N(C)CC(=O)N(C)[C@@H](C(C)C)C(=O)O[C@@H]2C)c(N)c1=O [DACTINOMYCIN] (I: T[dV]P[Sar][NMeV] / II: T[dV]P[Sar][NMeV]; ester I:1-I:C, II:1-II:C; linker I:N-II:N via Actinocin(9to1)) | ABSOLUTE EOSINOPHIL | CELLS/uL | 33.67
COc1cc2c3cc1Oc1cc(ccc1O)C[C@@H]1c4c(cc(OC)c(O)c4Oc4ccc(cc4)C[C@@H]3N(C)CC2)CC[N+]1(C)C.[Cl-] | ABSOLUTE EOSINOPHIL | CELLS/uL | 0

Please look at the following molecule next.
Exercise: Reported ABSOLUTE EOSINOPHIL, molecule Cc1ccc(N(CC2=NCCN2)c2cccc(O)c2)cc1 : ____
Key: 53.17

====

# key: entry, value: GLUCOSE
species: Rattus norvegicus; experiment: DrugMatrix - Regimen: Daily Repeat; format: toxicity, organism-based, Sprague-Dawley; set-up: regimen Daily Repeat, gender Male, age 6-8 weeks; conditions: in vivo, po, 0 mg/kg, 72 h, tissue Plasma, route oral GAVAGE, dose level Control, time 3 day, vehicle 100 % WATER
Reply numerically in mg/dL, unit not repeated.

Record excerpt, results attached:
compound | assay_value
NCCCCCC(=O)O | 163
Clc1cccc(Cl)c1N=C1NCCN1 | 162.17
COc1cc2nc(N3CCN(C(=O)C4COc5ccccc5O4)CC3)nc(N)c2cc1OC (stereo not given) | 173.83
c1ccc([C@H]2CN3CCSC3=N2)cc1 | 168.5

Please look at the following compound next.
Exercise: Reported GLUCOSE, compound C=CCC1(C(C)CCC)C(=O)NC(=O)NC1=O (stereo not given) : ____
Key: 152.67

====

species: Rattus norvegicus; assay: DrugMatrix - Regimen: Daily Repeat; type: toxicity, organism-based, Sprague-Dawley; parameters: regimen Daily Repeat, gender Male, age 6-8 weeks; details: in vivo, po, 0 mg/kg, 120 h, tissue Plasma, route oral GAVAGE, dose level Control, time 5 day, […]
# key: entry, value: CREATININE
Reply numerically in mg/dL, unit not repeated.

compound | units_symbol | CREATININE
CN(C)c1nc(N(C)C)nc(N(C)C)n1 | mg/dL | 0.2
O=NN(CCCl)C(=O)NC1CCCCC1 | mg/dL | 0.2
O=C(O)CCCc1ccc(N(CCCl)CCCl)cc1 | mg/dL | 0.37
OC(Cn1cncn1)(Cn1cncn1)c1ccc(F)cc1F | mg/dL | 0.37
CCC(C)n1ncn(-c2ccc(N3CCN(c4ccc(OCC5COC(Cn6cncn6)(c6ccc(Cl)cc6Cl)O5)cc4)CC3)cc2)c1=O (centres undefined) | mg/dL | 0.37
CC(C)C(=O)Nc1ccc([N+](=O)[O-])c(C(F)(F)F)c1 [FLUTAMIDE] | mg/dL | 0.17
CC(C)(Oc1ccc(Cl)cc1)C(=O)O | mg/dL | 0.2
Cc1noc(NS(=O)(=O)c2ccc(N)cc2)c1C | mg/dL | 0.23

Please look at the following compound next.
Exercise: Reported CREATININE, compound C[C@@H]1CN(c2c(F)c(N)c3c(=O)c(C(=O)O)cn(C4CC4)c3c2F)C[C@H](C)N1 : ____
Key: 0.2

====

organism: Rattus norvegicus; experiment: DrugMatrix - Regimen: Daily Repeat; type: toxicity, organism-based, Sprague-Dawley; parameters: regimen Daily Repeat, gender Male, age 6-8 weeks; conditions: in vivo, po, 0 mg/kg, 120 h, tissue Blood, route oral GAVAGE, dose level Control, time 5 day, vehicle 100 % WATER
measured_attribute: BASOPHIL (%)
Reply numerically in %, unit not repeated.

Record excerpt, results attached:
compound | units_symbol | BASOPHIL
Cn1cc[nH]c1=S [METHIMAZOLE] | % | 0
Clc1cccc(Cl)c1N=C1NCCN1 [CLONIDINE] | % | 0
Nc1c2c(nc3ccccc13)CCCC2 [TACRINE] | % | 0
CN(C)CCCN1c2ccccc2Sc2ccc(Cl)cc21 [CHLORPROMAZINE] | % | 0
N[C@@H](Cc1ccc(O)c(O)c1)C(=O)O [LEVODOPA] | % | 0
c1ccc([C@H]2CN3CCSC3=N2)cc1 [LEVAMISOLE] | % | 0
CNNCc1ccc(C(=O)NC(C)C)cc1 [PROCARBAZINE] | % | 0
CC(O)CO (stereo unspecified) [PROPYLENE GLYCOL] | % | 0

Exercise: Reported BASOPHIL, compound C[C@H](CS)C(=O)N1CCC[C@H]1C(=O)O [CAPTOPRIL] : ____
Key: 0

Exercise: Another compound: NCCCCCC(=O)O [AMINOCAPROIC ACID]
Key: 0

Exercise: Another compound: COc1cc2nc(N3CCN(C(=O)C4COc5ccccc5O4)CC3)nc(N)c2cc1OC (stereo unspecified) [DOXAZOSIN]
Key: 0

====

organism: Rattus norvegicus; test: DrugMatrix - Regimen: Daily Repeat; type: toxicity, organism-based, Sprague-Dawley; design: regimen Daily Repeat, gender Male, age 6-8 weeks; settings: in vivo, po, 0 mg/kg, 72 h, tissue Plasma, route oral GAVAGE, dose level Control, time 3 day, vehicle .5 % CMC
# key: entry, value: ALKALINE PHOSPHATASE
A complete answer gives the number followed by the unit.

molecule | ALKALINE PHOSPHATASE
ClC(Br)Br [DIBROMOCHLOROMETHANE] | 362.67 u/L
COc1nc(C)nc(Cl)c1N=C1NCCN1 [MOXONIDINE] | 398.5 u/L
Nc1ccn([C@H]2CC[C@@H](CO)O2)c(=O)n1 [ZALCITABINE] | 366.5 u/L
CN1CCN(CCCN2c3ccccc3Sc3ccc(Cl)cc32)CC1 [PROCHLORPERAZINE] | 374.5 u/L

Exercise: Reported ALKALINE PHOSPHATASE, molecule O=C(CCCN1CC=C(n2c(=O)[nH]c3ccccc32)CC1)c1ccc(F)cc1 [DROPERIDOL] : ____
Key: 411.83 u/L

Exercise: Another molecule: OCCN(CCO)c1nc(N2CCCCC2)c2nc(N(CCO)CCO)nc(N3CCCCC3)c2n1 [DIPYRIDAMOLE]
Key: 370.17 u/L

Exercise: Another molecule: C1CCC(C(CC2CCCCN2)C2CCCCC2)CC1 (centres undefined) [PERHEXILINE]
Key: 328.5 u/L

Exercise: Another molecule: Cc1nc2n(c(=O)c1CCN1CCC(c3noc4cc(F)ccc34)CC1)CCCC2 [RISPERIDONE]
Key: 391.33 u/L

Exercise: Another molecule: Cc1ccc(/N=C/N(C)/C=N/c2ccc(C)cc2C)c(C)c1 [AMITRAZ]
Key: 378.5 u/L

Exercise: Another molecule: CCOP(=S)(OCC)Oc1nc(Cl)c(Cl)cc1Cl [CHLORPYRIFOS]
Key: 426.33 u/L

Exercise: Another molecule: CCn1cc(C(=O)O)c(=O)c2cc(F)c(N3CCNCC3)cc21 [NORFLOXACIN]
Key: 378.5 u/L

Exercise: Another molecule: Cc1ccc2cc3c(ccc4ccccc43)c3c2c1CC3 [3-METHYLCHOLANTHRENE]
Key: 404.5 u/L

Exercise: Another molecule: NC1=NC(=O)C(c2ccccc2)O1 (centres undefined) [PEMOLINE]
Key: 368.33 u/L

Exercise: Another molecule: CCCCc1oc2ccccc2c1C(=O)c1cc(I)c(OCCN(CC)CC)c(I)c1 [AMIODARONE]
Key: 391.33 u/L

Exercise: Another molecule: CC1CC(OC(=O)C(O)c2ccccc2)CC(C)(C)C1 (centres undefined) [CYCLANDELATE]
Key: 370.17 u/L

Exercise: Another molecule: N=C(N)NCCN1CCCCCCC1 [GUANETHIDINE]
Key: 370.17 u/L

Exercise: Another molecule: CCCN1C[C@H](CSC)C[C@@H]2c3cccc4[nH]cc(c34)C[C@H]21 [PERGOLIDE]
Key: 388.83 u/L

Exercise: Another molecule: ClC(Cl)Br [BROMODICHLOROMETHANE]
Key: 362.67 u/L

Exercise: Another molecule: CC(C)(C)NC(=O)[C@@H]1C[C@@H]2CCCC[C@@H]2CN1C[C@@H](O)[C@H](Cc1ccccc1)NC(=O)[C@H](CC(N)=O)NC(=O)c1ccc2ccccc2n1
Key: 398.83 u/L
